# Test system: Acinetobacter baumanii/haemolyticus: Multidrug-resistant clinical isolate (AB-3167)
# ASSAY_COMMENT: MIC determination (CLSI), AB-3167
# Format: cell-based
# ASSAY_CONDITIONS: Acinetobacter baumanii/haemolyticus multidrug-resistant clinical isolate AB-3167
EXPERIMENTAL_READOUT: AB-3167 MIC

>>> value_observed("CC(=O)c1cc(-c2ccc(CCC(C)(C(=O)NO)S(C)(=O)=O)cc2)ccc1O (centres unmarked)")
"16 µg/mL"
>>> value_observed("Cc1cc(-c2ccc(CCC(C)(C(=O)NO)S(C)(=O)=O)cc2)cnc1N(C)C (centres unmarked)")
"≧64 mg/L"
>>> value_observed("CC(CCc1ccc(-c2ccc(F)cc2)cn1)(C(=O)NO)S(C)(=O)=O (centres unmarked)")
"≧64 mg/L"
>>> value_observed("CC(CCc1ccc(-c2ccc(OCCO)c(C#N)c2)cc1)(C(=O)NO)S(C)(=O)=O (centres unmarked)")
"≧64 mg/L"
>>> value_observed("CC(CCc1ccc(-c2ccc(C(N)=O)cc2)cc1)(C(=O)NO)S(C)(=O)=O (centres unmarked)")
"≧64 mg/L"
>>> value_observed("CC(CCc1ccc(-c2ccc(S(C)(=O)=O)cc2)cc1)(C(=O)NO)S(C)(=O)=O (racemic)")
"≧64 mg/L"
>>> value_observed("CC(CCc1ccc(-c2cccc(Cl)c2)cc1)(C(=O)NO)S(C)(=O)=O (centres unmarked)")
"4 µg/mL"
>>> value_observed("CC(CCc1ccc(-c2ccc3[nH]ccc3c2)cc1)(C(=O)NO)S(C)(=O)=O (centres unmarked)")
"8 µg/mL"

----------
Entries annotated with measured AB-3167 MIC
# Tested on: Acinetobacter baumanii/haemolyticus: Multidrug-resistant clinical isolate (AB-3167)
# ASSAY_COMMENT: MIC determination (CLSI), AB-3167
# Format: cell-based
# ASSAY_CONDITIONS: Acinetobacter baumanii/haemolyticus multidrug-resistant clinical isolate AB-3167
EXPERIMENTAL_READOUT: AB-3167 MIC (mg/L)

>>> value_observed("CC(CCc1ccc(-c2ccccc2F)cc1)(C(=O)NO)S(C)(=O)=O (centres unmarked) [Example 50]")
16
>>> value_observed("CC(CCc1ccc(-c2ccc(C#N)c(Cl)c2)cc1)(C(=O)NO)S(C)(=O)=O (centres unmarked) [Example 126]")
8
>>> value_observed("Cc1cc(CCC(C)(C(=O)NO)S(C)(=O)=O)ccc1-c1ccc(C#N)cc1 (centres unmarked) [Example 162]")
16
>>> value_observed("CC(CCc1ccc(-c2ccco2)cc1)(C(=O)NO)S(C)(=O)=O (centres unmarked) [Example 103]")
32
>>> value_observed("COC(C)c1ccc(-c2ccc(CCC(C)(C(=O)NO)S(C)(=O)=O)cc2)cc1 (mixture of isomers) [Example 71]")
32
>>> value_observed("CSc1ccc(-c2ccc(CCC(C)(C(=O)NO)S(C)(=O)=O)cc2)cc1 (centres unmarked) [Example 40]")
16
>>> value_observed("COc1cccc(-c2ccc(CC[C@](C)(C(=O)NO)S(C)(=O)=O)cc2)c1 [Example 170]")
16

----------
Attribute: MIC
# System: Pseudomonas aeruginosa UI-18: Wild-type (PA-7)
# ASSAY_COMMENT: MIC determination (CLSI), PA-7
# Assay type: cell-based
# ASSAY_CONDITIONS: Pseudomonas aeruginosa; Table 3; read-out: PA-7 MIC
EXPERIMENTAL_READOUT: MIC (µg/mL)

>>> value_observed("CC(CCc1ccc(OCc2cc(F)ccc2C(F)(F)F)cc1)(C(=O)NO)S(C)(=O)=O (stereo not drawn) [Example 280]")
32
>>> value_observed("CC(CCc1ccc(OCc2nc(-c3cccc(Cl)c3)no2)cc1)(C(=O)NO)S(C)(=O)=O (stereo not drawn) [Example 298]")
32
>>> value_observed("C#CCOc1ccc(CCC(C)(C(=O)NO)S(C)(=O)=O)cc1 (stereo not drawn) [Example 265]")
16
>>> value_observed("CC(CCc1ccc(OCc2cc(C#N)ccc2F)cc1)(C(=O)NO)S(C)(=O)=O (stereo not drawn) [Example 275]")
32
>>> value_observed("Cc1ccc(COc2ccc(CCC(C)(C(=O)NO)S(C)(=O)=O)cc2)cn1 (stereo not drawn) [Example 270]")
32
>>> value_observed("CCOc1ccc(CCC(C)(C(=O)NO)S(C)(=O)=O)cc1 (stereo not drawn) [Example 235]")
16
>>> value_observed("CC(CCc1ccc(OCCCc2ccccc2)cc1)(C(=O)NO)S(C)(=O)=O (stereo not drawn) [Example 264]")
32
>>> value_observed("CC(CCc1ccc(OCCCC2CCCC2)cc1)(C(=O)NO)S(C)(=O)=O (stereo not drawn) [Example 313]")
16
>>> value_observed("CC(CCc1ccc(OCc2cccc(Cl)c2)cc1)(C(=O)NO)S(C)(=O)=O (stereo not drawn) [Example 250]")
4
>>> value_observed("CC(C)Oc1ccc(CCC(C)(C(=O)NO)S(C)(=O)=O)cc1 (stereo not drawn) [Example 234]")
8
>>> value_observed("CC(CCc1ccc(OCCC2CCCC2)cc1)(C(=O)NO)S(C)(=O)=O (stereo not drawn) [Example 312]")
8
>>> value_observed("Cc1ncccc1COc1ccc(CCC(C)(C(=O)NO)S(C)(=O)=O)cc1 (stereo not drawn) [Example 245]")
32
>>> value_observed("CC(CCc1ccc(OCc2ccncc2)cc1)(C(=O)NO)S(C)(=O)=O (stereo not drawn) [Example 316]")
8
